# Test system: THRa:RXRa (NR concentration 90 nM, RXRa partner concentration 90 nM)
# protocol.details: PBM binding z-score (relative to random genomic background probes); higher = stronger binding; sequences stand for … in GC…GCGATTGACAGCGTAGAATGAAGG
Record yes whenever PBM binding z-score is at 1 or higher; record no when lower.

>>> assigned_category("ATCTCTAGGTAACAGGTTCAGTGAAAGAGAGGAC")
"yes"
>>> assigned_category("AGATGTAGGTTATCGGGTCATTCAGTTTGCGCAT")
"yes"
>>> assigned_category("ATCTCTACGTAAAGTTCAGTGAAAGATCGATAGA")
"no"
>>> assigned_category("CCTACTGGGTCAAGGTCATTGATCAGTCAAAGCA")
"yes"
>>> assigned_category("CCTACTGGGCCATTCAGAAGTCATTGATCATATG")
"no"
>>> assigned_category("ACAGACAGGTGAGTGAAGGTAACTCAACTGGACG")
"yes"
>>> assigned_category("ACTAGCAGGCCAAGGGTCACTCCAGATTAGTCCG")
"yes"
>>> assigned_category("TCTTGTAGATCAATGGAGGTTAAGAAAGTGCGCT")
"yes"
>>> assigned_category("TCTCGGAGGACACGAAAGGCCAGAGCTCGACATC")
"yes"
>>> assigned_category("CCTACTGGGCCAAAAAGGTCATGGATGCCGATAA")
"yes"
>>> assigned_category("CGTCCAATGTCAGCAGGTCAGTGAAAGCGACGTG")
"yes"
>>> assigned_category("GCTTGTAGATCAAGGTTAGGAAAGACTAAGCTAA")
"no"
>>> assigned_category("AGAACGAGGGCAGTGAGTTGATAGCACGGGTGGC")
"no"
>>> assigned_category("ACTAGCAGGCCAAGGGGCACTCAAGATTAGTCCG")
"no"
>>> assigned_category("GGAACGAGGGCAAGTTGCTAGCAGAGTTTGATGG")
"no"
>>> assigned_category("TCATATAGGTAACCAGGTGAAAGTCCGTAAGTTA")
"yes"
>>> assigned_category("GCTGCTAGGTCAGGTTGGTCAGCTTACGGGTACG")
"yes"
>>> assigned_category("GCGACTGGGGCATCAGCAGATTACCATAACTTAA")
"no"
>>> assigned_category("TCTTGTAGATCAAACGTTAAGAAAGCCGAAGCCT")
"no"
>>> assigned_category("CCTACTGGGCCAAATGTCATTGATTCCAATGCTC")
"no"
>>> assigned_category("TCAGACAGGTGAAGGTAACTCACGTACGCAGTCG")
"no"
>>> assigned_category("TAGCCTAGGTCATGCGGGCCAGTTTAGTGTCGGC")
"yes"
>>> assigned_category("CCTCGGTGGACAGAAGGTCAGAGCTGTCCGCTTT")
"yes"
>>> assigned_category("GCATATAGGTAATACAATGTGAAAGTCCGATTGT")
"no"
>>> assigned_category("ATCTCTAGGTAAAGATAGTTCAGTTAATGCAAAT")
"yes"
>>> assigned_category("CCTCGGCGGACAACAGGAGGTCAGAGCTGCCAGA")
"yes"
>>> assigned_category("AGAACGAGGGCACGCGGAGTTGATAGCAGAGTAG")
"yes"
>>> assigned_category("TAGCCTAGGTCAGATCGGGCCAATATACGCTATA")
"yes"
>>> assigned_category("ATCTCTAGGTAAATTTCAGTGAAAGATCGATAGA")
"no"
>>> assigned_category("CGTCCAAGGTCAAGGTCAGTGGAAGAGACTCGAA")
"yes"
>>> assigned_category("ATCTCTAGGTAAAGTTCAGTTAAAGATCGATAGA")
"yes"
>>> assigned_category("CCGACTGGGGCAAGGTTACCATAACGCACAGCCA")
"yes"
>>> assigned_category("CCTTACGGGTCACTGACAAGTTATAGCATTTGGA")
"yes"
>>> assigned_category("CGTCAAAGTTCAACTTAGGTAACGTAAAGCACGC")
"yes"
>>> assigned_category("CGAACTAGGTCAAGGACAGCGAATCTCCGCACGC")
"yes"
>>> assigned_category("TCTAGTTGGTCAAAGGTCACACAGTCGAAATGCG")
"yes"
>>> assigned_category("CCTTACGGTTCACGAGGTTATAGCACGACGAGCG")
"yes"
>>> assigned_category("TCTTGTAGATCAATAGCGGTTAAGAAAGTGCGCT")
"no"
>>> assigned_category("ATCTCTAGGTAAAGTTAAGTGAAAGATCGATAGA")
"no"
>>> assigned_category("TCTAGTTGGTCACGGAGCTCACACACGACGGGTA")
"no"
>>> assigned_category("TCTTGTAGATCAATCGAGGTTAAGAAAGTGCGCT")
"yes"
>>> assigned_category("ACAGACAGATGAGTGAAGGTAACTCAGCTGGACG")
"no"
>>> assigned_category("AGAACGAGGGCAATGAGTTGATAGCGCGGGTGGC")
"no"
>>> assigned_category("ATCTCTAGGTAACAAGTACAGTGAAAGAGAGGAC")
"yes"
>>> assigned_category("ACAGAAAGGTGAGTGAAGGTAACTCAGCTGGACG")
"yes"
>>> assigned_category("CAAACTAGGTCACAGATGTCAAAGTCCGTGCGTA")
"yes"
>>> assigned_category("CGCACTAGGTCAAGGACAGTGAATCTCCGCACGC")
"yes"
>>> assigned_category("CCGACTGGGGCGAGGTTACCATAACGCACAGCCA")
"yes"
>>> assigned_category("ACTAGTTGGCCAGCTGAGGTCACACACAATTCGG")
"yes"
>>> assigned_category("TAGCCTAGTTCATGGGCCAGTATACCACGCGAAC")
"no"
>>> assigned_category("CCTACTGGGCCATCCAGAGGTCATTGATCATATG")
"yes"

###

# Test system: FXR:RXRa (NR concentration 270 nM, RXRa partner concentration 90 nM)
# protocol.details: PBM binding z-score (relative to random genomic background probes); higher = stronger binding; sequences stand for … in GC…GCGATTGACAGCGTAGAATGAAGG
observed.property: PBM binding z-score

>>> obs_value("CCTATTAGTTGACCATAAGGGCAACCTAAGCTCG")
1.15
>>> obs_value("CGTCCAAGGTCATAGGAGGTAAGTGAAGACAGAT")
7.22
>>> obs_value("CTACCAAGGTAAACAAGGTCGTTGATTACTATTC")
0.877
>>> obs_value("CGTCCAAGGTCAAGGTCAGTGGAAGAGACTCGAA")
7.57
>>> obs_value("CCGACTGGGGCAAAGCTTACCATACTCAGTACGA")
-0.466
>>> obs_value("CTCGAAAGGTCGTGCTCAGGTCAGTATACCAAAC")
5.86

###

# System: LXRa homodimer (NR concentration 270 nM)
# protocol.details: PBM binding z-score (relative to random genomic background probes); higher = stronger binding; sequences stand for … in GC…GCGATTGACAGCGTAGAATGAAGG
observed.property: PBM binding z-score

>>> obs_value("TAGCCTGGGTCATTGGGCCAGTATAGTACGCATC")
-0.677
>>> obs_value("GATACATGGTCAAGGCCAGAGTACGCGTATTGAT")
-0.276
>>> obs_value("CCGACTGGGGCAGGAAGGTTACCATACCATCCGG")
-0.392
>>> obs_value("TCATAAAGGTAAAGGTGAAAGTCGAACGATATGA")
-0.143
>>> obs_value("CCTAGTTGATCAAGGTCACACACGCTATAGGTAC")
2.75
>>> obs_value("TCTATTAGTTTAAGGGCAACCGACGAGTCCGTTT")
0.766
>>> obs_value("TCGAGTAGGTTACCAATGTGGCATTCAGCTTTCT")
-0.667
>>> obs_value("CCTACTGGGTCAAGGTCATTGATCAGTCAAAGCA")
2.13
>>> obs_value("CAAACTAGGTCACGTAAGGTCAAAGTCGAATGAC")
7.28
>>> obs_value("ATCCCTAGGTAAAAGTTCAGTGAATCCCGAGGAT")
0.954
>>> obs_value("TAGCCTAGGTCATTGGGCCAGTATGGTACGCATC")
0.37
>>> obs_value("CGAACTAGGTCATTGACAGGACAGTGAGTAGTAA")
0.194
>>> obs_value("TTAATGAGGTTATAAGATCAGGGAACGTTGCAAA")
0.416
>>> obs_value("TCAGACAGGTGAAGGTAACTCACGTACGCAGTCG")
-0.278
>>> obs_value("CAAACTAGGTCAAGAGTTCAAAGTCCGCTTCCCG")
6.24
>>> obs_value("TTACCAAGGTGAAAGGTCGTAGATGCACGCCTTG")
-0.241
>>> obs_value("CCTACTGGGCCATTCAGAGGTCATTTATCATATG")
8.31
>>> obs_value("GCGACTGGGGCATGAGCAGGTTACCATAACTTAA")
-0.638
>>> obs_value("TCTAGTTGGTCCCGGAGGTCACACACGACGGGTA")
2.37
>>> obs_value("CCTAGCAGCCCAGGGTCACTCAAGCATTTCGCTT")
-0.213
>>> obs_value("TGTCACAGTTCAAAGGTAACGTAAGTATCCACAC")
0.785
>>> obs_value("CCGAGTAGGTTATGGGGCACTCAGGCAACGGTGA")
-0.464
>>> obs_value("TCATATAAGTAAATGCTAGGTGAAAGTCCGATCT")
0.543
>>> obs_value("TGAATGAGGTCATAAGATCAGGGAACGTTGCAAA")
0.779
>>> obs_value("TGTCATAGTTCAAAGGTAACGTAAGTATCCACAC")
1.04
>>> obs_value("ACTATTAGTTGACTTAGGTCAACCGATACGACGC")
1.71

Source: the supplement of paper PMC6555819
